tested on: FITC-labeled MyoVa-GTD (human, UniProt Q9Y4I1 1448-1855, fluorescein isothiocyanate (FITC) label, site not stated)
Chain: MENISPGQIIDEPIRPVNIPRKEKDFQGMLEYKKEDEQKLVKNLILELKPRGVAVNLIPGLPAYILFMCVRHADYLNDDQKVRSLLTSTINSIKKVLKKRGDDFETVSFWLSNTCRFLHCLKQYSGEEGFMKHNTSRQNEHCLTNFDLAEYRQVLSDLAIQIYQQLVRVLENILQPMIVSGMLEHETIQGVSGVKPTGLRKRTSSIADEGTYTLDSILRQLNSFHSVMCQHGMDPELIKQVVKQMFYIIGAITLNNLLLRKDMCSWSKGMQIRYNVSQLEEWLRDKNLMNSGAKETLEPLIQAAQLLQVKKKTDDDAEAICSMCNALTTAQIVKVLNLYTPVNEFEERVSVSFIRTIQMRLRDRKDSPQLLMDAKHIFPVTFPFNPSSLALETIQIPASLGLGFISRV
assay protocol: MST; 300 nM FITC-labeled MyoVa-GTD, serial dilution of RPGRIP1L-C2 domains; 50 mM HEPES, 150 mM NaCl, 5% glycerol, 0.05% tween-20, pH 7.2; Monolith NT.115, LED power 20%, MST power 60%; triplicate
measured attribute: Kd

Could you share which Kd value was measured for RPGRIP1L-C2 domains ?
3 to 9 µM
